target: VEGFR2 (Homo sapiens, UniProt P35968); assay: Kinase inhibition, whole-cell assay, VEGFR2 (Flk-1); conditions: Table 3b; unit inferred
Sequence (P35968 20-1356, species assumed): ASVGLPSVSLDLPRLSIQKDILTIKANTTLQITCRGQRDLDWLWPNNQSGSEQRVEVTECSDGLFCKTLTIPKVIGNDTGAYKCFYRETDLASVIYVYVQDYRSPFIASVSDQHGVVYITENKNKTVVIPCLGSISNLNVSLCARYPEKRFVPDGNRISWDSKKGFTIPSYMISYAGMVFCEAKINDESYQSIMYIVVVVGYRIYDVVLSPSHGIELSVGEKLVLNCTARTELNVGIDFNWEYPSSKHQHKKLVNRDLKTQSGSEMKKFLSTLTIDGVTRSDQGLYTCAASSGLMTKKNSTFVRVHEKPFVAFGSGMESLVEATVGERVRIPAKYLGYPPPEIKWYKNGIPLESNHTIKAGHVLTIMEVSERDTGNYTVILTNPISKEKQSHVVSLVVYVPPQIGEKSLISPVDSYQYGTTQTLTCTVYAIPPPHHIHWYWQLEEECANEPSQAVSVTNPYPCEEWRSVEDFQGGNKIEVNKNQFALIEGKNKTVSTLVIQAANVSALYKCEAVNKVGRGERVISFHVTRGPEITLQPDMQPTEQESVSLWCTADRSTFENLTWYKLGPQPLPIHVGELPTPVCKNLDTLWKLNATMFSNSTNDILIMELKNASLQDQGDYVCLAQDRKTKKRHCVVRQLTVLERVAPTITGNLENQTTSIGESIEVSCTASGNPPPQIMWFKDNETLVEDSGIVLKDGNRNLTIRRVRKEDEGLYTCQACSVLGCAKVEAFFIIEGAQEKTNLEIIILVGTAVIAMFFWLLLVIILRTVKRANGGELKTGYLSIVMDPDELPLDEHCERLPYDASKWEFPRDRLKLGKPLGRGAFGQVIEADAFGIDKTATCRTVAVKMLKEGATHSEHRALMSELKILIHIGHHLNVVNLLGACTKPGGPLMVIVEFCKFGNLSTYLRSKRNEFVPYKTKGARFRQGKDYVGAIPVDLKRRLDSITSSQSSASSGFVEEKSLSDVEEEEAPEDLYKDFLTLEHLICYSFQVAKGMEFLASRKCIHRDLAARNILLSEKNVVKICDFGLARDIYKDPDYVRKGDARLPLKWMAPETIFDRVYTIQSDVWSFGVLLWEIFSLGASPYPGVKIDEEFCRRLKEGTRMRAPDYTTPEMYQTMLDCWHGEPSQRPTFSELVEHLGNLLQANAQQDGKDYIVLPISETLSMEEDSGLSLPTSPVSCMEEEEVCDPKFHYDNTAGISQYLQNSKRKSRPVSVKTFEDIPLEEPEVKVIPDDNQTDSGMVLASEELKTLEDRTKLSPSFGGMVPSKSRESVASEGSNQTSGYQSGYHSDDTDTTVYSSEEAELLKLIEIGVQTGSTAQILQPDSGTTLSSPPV
pIC50: −log10 of the molar value.
Readout Label: pIC50

- COc1ccc(N(C)c2nc(Cl)nc3ccn(C)c23)cc1: 7.91
- CSc1ccc(N(C)c2nc(C)nc3ccn(C)c23)cc1: 6.26

a: COc1ccc2c(c1)CCCN2c1nc(Cl)nc2ccn(C)c12
b: CSc1ccc(N(C)c2nc(Cl)nc3ccn(C)c23)cc1
Which record shows the lower pIC50: the first, a , or the second, b ? // output: label of the selected item b

* * *

test system: MDA-MB-435 cancer cells; assay: Antiproliferative effect in MDA-MB-435 cancer cells (SRB assay); format: cell-based; settings: Table 3; read-out: MDA-MB-435 IC50
Structures can show the parent of a compound that is named as a salt.
Each entry below carries its reported IC50.
Lab book: enter the figure in nM, no units written.

• CSc1ccc(N(C)c2nc(C)nc3cc[nH]c23)cc1 [4•HCl] = 49.9

Give the measured IC50 of CSc1ccc(N(C)c2nc(C)nc3ccn(C)c23)cc1 [5•HCl] . 6.2

The reported numbers originate from patent US10239880B2.
